Overview of recorded Ratio of PDL1:CD28 for various binders
biological target: T1, human PD-L1 (human, UniProt Q9NZQ7 19-290); assay: flow cytometry, MFI on CHO/huPD-L1 cells divided by MFI on Jurkat cells (CD28), 33.3 nM
T1 construct: whole, on cells; CHO cells stably expressing huPD-L1; also called huPD-L1
T1 sequence (Q9NZQ7 19-290): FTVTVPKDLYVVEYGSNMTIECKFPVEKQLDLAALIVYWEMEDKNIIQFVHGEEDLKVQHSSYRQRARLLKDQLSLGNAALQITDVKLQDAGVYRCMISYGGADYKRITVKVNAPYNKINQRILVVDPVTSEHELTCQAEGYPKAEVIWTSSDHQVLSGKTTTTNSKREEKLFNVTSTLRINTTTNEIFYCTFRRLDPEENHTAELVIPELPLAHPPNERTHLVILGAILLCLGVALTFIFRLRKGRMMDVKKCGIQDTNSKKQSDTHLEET
reported.endpoint: Ratio of PDL1:CD28 (ratio)

binder	value.measured
variant CD80 IgV-Fc (inert) H18F/A26N/E35D/M47V/V68M/A71G/D90K (Fc fusion, not shown: inert human IgG1 Fc) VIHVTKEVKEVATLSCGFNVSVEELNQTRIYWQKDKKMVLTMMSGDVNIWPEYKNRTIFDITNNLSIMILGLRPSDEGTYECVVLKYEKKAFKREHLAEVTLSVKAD	7.1
variant CD80 IgV-Fc (inert) H18F/A26D/E35D/D46E/M47T/V68M/A71G/D90G (Fc fusion, not shown: inert human IgG1 Fc) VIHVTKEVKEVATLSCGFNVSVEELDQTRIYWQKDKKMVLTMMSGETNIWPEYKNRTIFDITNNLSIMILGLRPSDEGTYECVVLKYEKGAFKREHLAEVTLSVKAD	4.6
